# assay.target: T1, SARS-CoV-2 receptor binding domain (RBD), wild type, His-tagged (SARS-CoV-2, UniProt P0DTC2 319-541)
# T1 construct: domain: RBD; also called His-tagged RBD; BEI NR52309
# protocol.description: method and format not given

binder	Kd [µM]
mAb 160 (antibody, V domains shown, also called IgG 160; Antibody 160) VH: QVQLVQSGAEVKKPGASVKVSCKASGYTFTGHDMHWVRQAPGQGLEWMGIINPSGGSTSYAQKFQGRVTMTRDTSTSTVYMELSSLRSEDTAVYYCARANSLRYYYGMDVWGQGTMVTVSS VL: DIQMTQSPSSLSASVGDRVTITCRASQSVSSWLAWYQQKPGKAPKLLIYAASSLQSGVPSRFSGSGSGTDFTLTISSLQPEDFATYYCQQGYTTPYTFGQGTKLEIKR	0.0077
mAb 254 (antibody, V domains shown, also called IgG 254; Antibody 254) VH: EVQLLESGGGLVQPGGSLRLSCAASGFTFSSSAMHWVRQAPGKGLEWVSAIGTGGDTYYADSVKGRFTISRDNSKNTLYLQMNSLRAEDTAVYYCAREGDGYNFYFDYWGQGTLVTVSS VL: DIQMTQSPSSLSASVGDRVTITCRASQGISSYLAWYQQKPGKAPKLLIYDASSLQIGVPSRFSGSGSGTDFTLTISSLQPEDFATYYCLQSYSTPPWTFGQGTKVEIKR	0.127
mAb 158 (antibody, V domains shown, also called IgG 158; Antibody 158) VH: QVQLVQSGAEVKKPGASVKVSCKASGYTFTGYYMHWVRQAPGQGLEWMGWINPLNGGTNFAPKFQGRVTMTRDTSTSTVYMELSSLRSEDTAVYYCARDPGGSYSNDAFDIWGQGTLVTVSS VL: DIQMTQSPSSLSASVGDRVTITCRASQSISRYLNWYQQKPGKAPKLLIYDASNLESGVPSRFSGSGSGTDFTLTISSLQPEDFATYYCQQANSFPLTFGGGTKVDIKR	0.172
mAb 56 (antibody, V domains shown, also called IgG 56; Antibody 56) VH: QVQLVQSGAEVKKPGASVKVSCKASGYTFTSYGISWVRQAPGQGLEWMGWISAYNGNTNYAQKLQGRVTMTRDTSTSTVYMELSSLRSEDTAVYYCARDIGPIDYWGQGTLVTVSS VL: DIQMTQSPSSLSASVGDRVTITCRASQGISSYLAWYQQKPGKAPKLLIYDASNLQSGVPSRFSGSGSGTDFTLTISSLQPEDFATYYCQQANSFPSTFGQGTKVEIKR	0.023
mAb 128 (antibody, V domains shown) VH: QVQLVQSGAEVKKPGASVKVSCKASGYTFTHYYMHWVRQAPGQGLEWMGIINPSSSSASYSQKFQGRVTMTRDTSTSTVYMELSSLRSEDTAVYYCARDGRYGSGSYPFDYWGQGTLVTVSS VL: DIQMTQSPSSLSASVGDRVTITCRASQNISRYLNWYQQKPGKAPKLLIYDASNLETGVPSRFSGSGSGTDFTLTISSLQPEDFATYYCQQANGFPPTFGQGTKLEIKR	0.057
